# SYSTEM_NAME: Poly [ADP-ribose] polymerase 1 (Homo sapiens, UniProt P09874)
# Sequence (P09874 whole entry): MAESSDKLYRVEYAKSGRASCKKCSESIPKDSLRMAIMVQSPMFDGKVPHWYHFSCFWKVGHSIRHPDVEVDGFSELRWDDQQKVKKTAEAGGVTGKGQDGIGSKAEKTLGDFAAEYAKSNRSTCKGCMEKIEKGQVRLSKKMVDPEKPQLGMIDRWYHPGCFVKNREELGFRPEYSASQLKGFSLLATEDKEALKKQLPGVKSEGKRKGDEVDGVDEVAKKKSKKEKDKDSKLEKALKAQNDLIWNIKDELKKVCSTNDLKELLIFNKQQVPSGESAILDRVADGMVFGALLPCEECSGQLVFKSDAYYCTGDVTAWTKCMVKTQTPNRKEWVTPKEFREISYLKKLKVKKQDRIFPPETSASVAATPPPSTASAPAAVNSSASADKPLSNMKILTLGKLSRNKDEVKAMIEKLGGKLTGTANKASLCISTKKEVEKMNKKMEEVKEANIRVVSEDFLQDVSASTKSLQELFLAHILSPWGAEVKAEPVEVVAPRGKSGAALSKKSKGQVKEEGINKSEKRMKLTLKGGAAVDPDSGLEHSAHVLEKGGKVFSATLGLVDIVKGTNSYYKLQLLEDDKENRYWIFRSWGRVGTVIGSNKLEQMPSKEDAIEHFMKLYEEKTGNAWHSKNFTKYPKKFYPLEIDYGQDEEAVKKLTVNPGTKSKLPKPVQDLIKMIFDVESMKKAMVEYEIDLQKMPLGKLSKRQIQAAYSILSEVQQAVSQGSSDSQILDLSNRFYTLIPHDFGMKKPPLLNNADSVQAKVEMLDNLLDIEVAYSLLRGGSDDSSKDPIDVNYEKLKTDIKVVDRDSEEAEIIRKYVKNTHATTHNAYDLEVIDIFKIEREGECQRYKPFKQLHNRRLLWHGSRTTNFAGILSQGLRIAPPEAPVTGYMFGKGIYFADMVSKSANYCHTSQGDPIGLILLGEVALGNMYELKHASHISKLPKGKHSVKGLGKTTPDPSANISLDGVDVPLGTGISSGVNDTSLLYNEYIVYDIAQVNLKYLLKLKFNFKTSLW
# EXPERIMENT_NOTES: Inhibition of PARP-1 (unknown origin) binding to DNA assessed as DNA trapping activity
ASSAY_METRIC: IC50 (nM)
# unit: nM | format: bare number

IN: Could you share what IC50 was measured for CCc1cc2ncc(CN3CCN(c4cc5cccc(C(=O)NC)c5cn4)CC3)cc2[nH]c1=O , tested on Poly [ADP-ribose] polymerase 1 (Homo sapiens, UniProt P09874)?
OUT: 1570

IN: Form field - read-out: IC50; system: Poly [ADP-ribose] polymerase 1 (Homo sapiens, UniProt P09874); submitted item: CCc1cc2ncc(CN3CCN(c4cnc5cn[nH]c5c4)CC3)cc2[nH]c1=O
OUT: 231

IN: For Poly [ADP-ribose] polymerase 1 (Homo sapiens, UniProt P09874), provide IC50 of CCc1cc2ncc(CN3CC4(CCN(c5ccc(C(=O)NC)nc5)CC4)C3)cc2[nH]c1=O please.
OUT: 158

IN: Test system Poly [ADP-ribose] polymerase 1 (Homo sapiens, UniProt P09874); read-out IC50; what value for CCc1cc2ncc(CN3CCN(c4cc5c(cn4)NC(=O)CC5)CC3)cc2[nH]c1=O ?
OUT: 727

IN: # query: IC50 | item CCc1cc2ncc(CN3CCN(c4ccc5[nH]ncc5n4)CC3)cc2[nH]c1=O | system: Poly [ADP-ribose] polymerase 1 (Homo sapiens, UniProt P09874)
OUT: 380

IN: Lookup: IC50 / Poly [ADP-ribose] polymerase 1 (Homo sapiens, UniProt P09874) / CCc1cc2ncc(CN3CCN(c4ccc(C(=O)NC)c5nccn45)CC3)cc2[nH]c1=O
OUT: 3.58

----------
# SYSTEM_NAME: Poly [ADP-ribose] polymerase 2 (Homo sapiens, UniProt Q9UGN5)
# Sequence (Q9UGN5 whole entry): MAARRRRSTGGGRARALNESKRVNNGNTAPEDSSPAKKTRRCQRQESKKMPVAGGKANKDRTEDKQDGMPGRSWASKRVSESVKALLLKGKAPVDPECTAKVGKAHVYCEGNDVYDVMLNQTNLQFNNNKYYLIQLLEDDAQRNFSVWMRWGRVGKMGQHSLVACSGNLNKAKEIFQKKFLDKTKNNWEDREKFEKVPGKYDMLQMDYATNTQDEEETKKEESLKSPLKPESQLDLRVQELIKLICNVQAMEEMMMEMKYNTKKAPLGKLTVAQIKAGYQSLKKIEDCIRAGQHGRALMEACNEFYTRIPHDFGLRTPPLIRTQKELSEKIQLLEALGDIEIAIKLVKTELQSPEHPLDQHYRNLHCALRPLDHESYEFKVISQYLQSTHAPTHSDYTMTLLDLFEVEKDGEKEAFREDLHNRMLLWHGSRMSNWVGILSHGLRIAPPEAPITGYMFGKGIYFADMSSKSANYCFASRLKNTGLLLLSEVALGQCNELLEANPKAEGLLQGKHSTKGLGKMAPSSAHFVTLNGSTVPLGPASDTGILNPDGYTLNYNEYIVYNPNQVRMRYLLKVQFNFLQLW
# EXPERIMENT_NOTES: Inhibition of PARP-2 (unknown origin) binding to DNA assessed as DNA trapping activity
I'd appreciate it if you could supply pIC50 values for the items below.
Remember the convention: pIC50 equals -log10 of concentration in molar.

IN: Which value of pIC50 has been reported for CCc1cc2ncc(CN3CCN(c4ccc5oc(=O)[nH]c5c4)CC3)cc2[nH]c1=O in the records?
OUT: 6.00

IN: Name the reported pIC50 value associated with the molecule CCc1cc2ncc(CN3CCN(c4cnc5cn[nH]c5c4)CC3)cc2[nH]c1=O
OUT: 6.68

IN: Would you kindly share the measured pIC50 for CCc1cc2ncc(CN3CCN(c4ccc(C(N)C(F)(F)F)nc4)CC3)cc2[nH]c1=O (stereo not drawn) ?
OUT: 4.93

IN: Using the record for CCc1cc2ncc(CN3CC[C@@H](Nc4ccc(C(=O)NC)nc4)C3)cc2[nH]c1=O , report its pIC50.
OUT: 5.52

IN: Quick one: pIC50 for CCc1cc2ncc(CN3CC4CN(c5ccc(C(=O)NC)nc5)CC4C3)cc2[nH]c1=O (stereo not drawn) ?
OUT: 6.17

IN: Which pIC50 reading was recorded for the molecule CCc1cc2ncc(CN3CCc4cc(/C=C/C(=O)NC)ccc4C3)cc2[nH]c1=O ?
OUT: 5.93

IN: # get_value(readout='pIC50', item= CCc1cc2ncc(CN3CCN(c4ccc(C(C)(C)O)nc4)CC3)cc2[nH]c1=O )
OUT: 4.85

IN: Request the reported pIC50 associated with CCc1cc2ncc(CN3CCn4c(cnc4C(=O)NC)C3)cc2[nH]c1=O
OUT: 5.69

IN: Look up pIC50: CCc1cc2ncc(CN3CCN(c4ccc(OC(F)F)nc4)CC3)cc2[nH]c1=O
OUT: 5.20

IN: Which pIC50 value belongs to CCc1cc2ncc(CN3CCc4nc(C(=O)NC)ccc4C3)cc2[nH]c1=O ?
OUT: 5.39

IN: For CCc1cc2ncc(CN3CCN(c4ccc5[nH]ncc5n4)CC3)cc2[nH]c1=O , what is its reported pIC50?
OUT: 5.93

IN: Name the reported pIC50 value associated with the molecule CCc1cc2ncc(CN3CC4(C3)CN(c3ccc(C(=O)NC)nc3)C4)cc2[nH]c1=O
OUT: 6.08

IN: Entry CCc1cc2ncc(CN3CCC(Nc4ccc(C(=O)NC)nc4)C3)cc2[nH]c1=O (stereo not drawn) has what pIC50?
OUT: 5.03

Cited source: ChEMBL document CHEMBL5150037
